Hi there, I'd appreciate the recorded viability, T/C for every entry that follows.
Tested on: 242566-281-R-J2-PDC complex spheroid viability
test_method_notes: Anticancer human tumor 242566-281-R-J2-PDC patient-derived pancreatic carcinoma cell line growth inhibition [RAS]
measurement_setup: second compound 0.0949 µM; first compound 10 µM; stronger effect = lower value
Report only the number, with the unit % understood.

For the molecule shown here, CC(C)NCC(C(=O)N1CCN(c2ncnc3c2C(C)CC3O)CC1)c1ccc(Cl)cc1 (stereo not drawn) + CCn1c(-c2cc(N3CCN(C)CC3)cnc2C(C)OC)c2c3cc(ccc31)-c1csc(n1)CC(NC(=O)C1CC1C)C(=O)N1CCCC(N1)C(=O)OCC(C)(C)C2 , give the reported viability, T/C.
5.5

For the molecule shown here, Cc1nc(N2CCC3(CC2)COC(C)C3N)c(CO)nc1Sc1ccnc(N)c1Cl (stereo not drawn) + CCn1c(-c2cccnc2C(C)OC)c2c3cc(ccc31)N1CCOC(CC(NC(=O)C(C(C)C)N(C)C(=O)C3(F)CCN(C(=O)C#CC(C)(C)N(C)C)CC3)C(=O)N3CCCC(N3)C(=O)OCC(C)(C)C2)C1 , give the reported viability, T/C.
61.9

For the molecule shown here, CCC(CC)c1cc(NC2CCC(N)C2)n2nccc2n1 (stereo not drawn) + CCn1c(-c2cc(N3CCN(C)CC3)cnc2C(C)OC)c2c3cc(ccc31)-c1csc(n1)CC(NC(=O)C1CC1C)C(=O)N1CCCC(N1)C(=O)OCC(C)(C)C2 , give the reported viability, T/C.
1.49

For the molecule shown here, C[C@@H](NC(=O)c1ncnc(N)c1Cl)c1ncc(C(=O)Nc2cc(C(F)(F)F)c(Cl)cn2)s1 + CCn1c(-c2cccnc2C(C)OC)c2c3cc(ccc31)N1CCOC(CC(NC(=O)C(C(C)C)N(C)C(=O)C3(F)CCN(C(=O)C#CC(C)(C)N(C)C)CC3)C(=O)N3CCCC(N3)C(=O)OCC(C)(C)C2)C1 , give the reported viability, T/C.
98.1

For the molecule shown here, NC1c2ccccc2OC12CCN(c1cnc3c(N4CCCc5ncccc54)n[nH]c3n1)CC2 (stereo not drawn) + CCn1c(-c2cc(N3CCN(C)CC3)cnc2C(C)OC)c2c3cc(ccc31)-c1csc(n1)CC(NC(=O)C1CC1C)C(=O)N1CCCC(N1)C(=O)OCC(C)(C)C2 , give the reported viability, T/C.
7.6

For the molecule shown here, CC(=O)OC12COC1CC(O)C1(C)C(=O)C(O)C3=C(C)C(OC(=O)C(O)C(NC(=O)OC(C)(C)C)c4ccccc4)CC(O)(C(OC(=O)c4ccccc4)C21)C3(C)C (stereo not drawn) + CCn1c(-c2cccnc2C(C)OC)c2c3cc(ccc31)N1CCOC(CC(NC(=O)C(C(C)C)N(C)C(=O)C3(F)CCN(C(=O)C#CC(C)(C)N(C)C)CC3)C(=O)N3CCCC(N3)C(=O)OCC(C)(C)C2)C1 , give the reported viability, T/C.
40.3

For the molecule shown here, CC(Nc1ccc2c(c1)OCCn1cc(N3C(=O)OCC3C(F)F)nc1-2)C(N)=O (stereo not drawn) + CCn1c(-c2cccnc2C(C)OC)c2c3cc(ccc31)N1CCOC(CC(NC(=O)C(C(C)C)N(C)C(=O)C3(F)CCN(C(=O)C#CC(C)(C)N(C)C)CC3)C(=O)N3CCCC(N3)C(=O)OCC(C)(C)C2)C1 , give the reported viability, T/C.
17.7

For the molecule shown here, CC(Nc1ccc2c(c1)OCCn1cc(N3C(=O)OCC3C(F)F)nc1-2)C(N)=O (stereo not drawn) + CCn1c(-c2cc(N3CCN(C)CC3)cnc2C(C)OC)c2c3cc(ccc31)-c1csc(n1)CC(NC(=O)C1CC1C)C(=O)N1CCCC(N1)C(=O)OCC(C)(C)C2 , give the reported viability, T/C.
0.91

====

Test system: 242566-281-R-J2-PDC complex spheroid viability
test_method_notes: Anticancer human tumor 242566-281-R-J2-PDC cell line growth inhibition [RAS];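 also: spheroids exposed to compound for 7 days before readout; 100% = DMSO vehicle control wells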
measurement_setup: second compound 0.00949 µM; first compound 1 µM; stronger effect = lower value
recorded_metric: viability, T/C

For the compound shown here, CCN1CCN(Cc2ccc(Nc3ncc(F)c(-c4cc(F)c5nc(C)n(C(C)C)c5c4)n3)nc2)CC1 + CCn1c(-c2cccnc2C(C)OC)c2c3cc(ccc31)N1CCOC(CC(NC(=O)C(C(C)C)N(C)C(=O)C3(F)CCN(C(=O)C#CC(C)(C)N(C)C)CC3)C(=O)N3CCCC(N3)C(=O)OCC(C)(C)C2)C1 , give the reported viability, T/C.
109%

For the compound shown here, Nc1ccn(C2OC(CO)C(O)C2(F)F)c(=O)n1 (stereo not drawn) + CCn1c(-c2cccnc2C(C)OC)c2c3cc(ccc31)N1CCOC(CC(NC(=O)C(C(C)C)N(C)C(=O)C3(F)CCN(C(=O)C#CC(C)(C)N(C)C)CC3)C(=O)N3CCCC(N3)C(=O)OCC(C)(C)C2)C1 , give the reported viability, T/C.
13.2%

For the compound shown here, NC1c2ccccc2OC12CCN(c1cnc3c(N4CCCc5ncccc54)n[nH]c3n1)CC2 (stereo not drawn) + CCn1c(-c2cc(N3CCN(C)CC3)cnc2C(C)OC)c2c3cc(ccc31)-c1csc(n1)CC(NC(=O)C1CC1C)C(=O)N1CCCC(N1)C(=O)OCC(C)(C)C2 , give the reported viability, T/C.
15.8%

For the compound shown here, NC1c2ccccc2OC12CCN(c1cnc3c(N4CCCc5ncccc54)n[nH]c3n1)CC2 (stereo not drawn) + CCn1c(-c2cccnc2C(C)OC)c2c3cc(ccc31)N1CCOC(CC(NC(=O)C(C(C)C)N(C)C(=O)C3(F)CCN(C(=O)C#CC(C)(C)N(C)C)CC3)C(=O)N3CCCC(N3)C(=O)OCC(C)(C)C2)C1 , give the reported viability, T/C.
64.6%

For the compound shown here, CCN1CCN(Cc2ccc(Nc3ncc(F)c(-c4cc(F)c5nc(C)n(C(C)C)c5c4)n3)nc2)CC1 + CCn1c(-c2cc(N3CCN(C)CC3)cnc2C(C)OC)c2c3cc(ccc31)-c1csc(n1)CC(NC(=O)C1CC1C)C(=O)N1CCCC(N1)C(=O)OCC(C)(C)C2 , give the reported viability, T/C.
48.1%

For the compound shown here, Cc1nc(N2CCC3(CC2)COC(C)C3N)c(CO)nc1Sc1ccnc(N)c1Cl (stereo not drawn) + CCn1c(-c2cccnc2C(C)OC)c2c3cc(ccc31)N1CCOC(CC(NC(=O)C(C(C)C)N(C)C(=O)C3(F)CCN(C(=O)C#CC(C)(C)N(C)C)CC3)C(=O)N3CCCC(N3)C(=O)OCC(C)(C)C2)C1 , give the reported viability, T/C.
71%

For the compound shown here, C=CC(=O)Nc1cc(Nc2nccc(-c3cn(C)c4ccccc34)n2)c(OC)cc1N(C)CCN(C)C + CCn1c(-c2cc(N3CCN(C)CC3)cnc2C(C)OC)c2c3cc(ccc31)-c1csc(n1)CC(NC(=O)C1CC1C)C(=O)N1CCCC(N1)C(=O)OCC(C)(C)C2 , give the reported viability, T/C.
15.3%

For the compound shown here, O=C(c1ccc(F)c(F)c1Nc1ccc(I)cc1F)N1CC(O)([C@@H]2CCCCN2)C1 + CCn1c(-c2cc(N3CCN(C)CC3)cnc2C(C)OC)c2c3cc(ccc31)-c1csc(n1)CC(NC(=O)C1CC1C)C(=O)N1CCCC(N1)C(=O)OCC(C)(C)C2 , give the reported viability, T/C.
16.2%

====

Hi there, I'd appreciate the recorded viability, T/C for every entry that follows.
Tested on: 242566-281-R-J2-PDC complex spheroid viability
test_method_notes: Anticancer human tumor 242566-281-R-J2-PDC cell line growth inhibition [RAS];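 also: spheroids exposed to compound for 7 days before readout; 100% = DMSO vehicle control wells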
measurement_setup: second compound 0.00316 µM; first compound 0.1 µM; stronger effect = lower value

Short answer please: viability, T/C, 242566-281-R-J2-PDC complex spheroid viability, entry CC(Nc1ccc2c(c1)OCCn1cc(N3C(=O)OCC3C(F)F)nc1-2)C(N)=O (stereo not given) + C=CC(=O)N1CCN(c2nc(OCC3CCCN3C)nc3c(F)c(-c4nc(N)cc(C)c4C(F)(F)F)c(Cl)cc23)C(C)C1
113%

Short answer please: viability, T/C, 242566-281-R-J2-PDC complex spheroid viability, entry C[C@@H](NC(=O)c1ncnc(N)c1Cl)c1ncc(C(=O)Nc2cc(C(F)(F)F)c(Cl)cn2)s1 + C=CC(=O)N1CCN(c2nc(OCC3CCCN3C)nc3c(F)c(-c4nc(N)cc(C)c4C(F)(F)F)c(Cl)cc23)C(C)C1
142%

Short answer please: viability, T/C, 242566-281-R-J2-PDC complex spheroid viability, entry Cc1nc(N2CCC3(CC2)COC(C)C3N)c(CO)nc1Sc1ccnc(N)c1Cl (stereo not given) + C=CC(=O)N1CCN(c2nc(OCC3CCCN3C)nc3c(F)c(-c4nc(N)cc(C)c4C(F)(F)F)c(Cl)cc23)C(C)C1
136%

Short answer please: viability, T/C, 242566-281-R-J2-PDC complex spheroid viability, entry CCN1CCN(Cc2ccc(Nc3ncc(F)c(-c4cc(F)c5nc(C)n(C(C)C)c5c4)n3)nc2)CC1 + C=CC(=O)N1CCN(c2nc(OCC3CCCN3C)nc3c(F)c(-c4nc(N)cc(C)c4C(F)(F)F)c(Cl)cc23)C(C)C1
90.5%

Short answer please: viability, T/C, 242566-281-R-J2-PDC complex spheroid viability, entry O=C(c1ccc(F)c(F)c1Nc1ccc(I)cc1F)N1CC(O)([C@@H]2CCCCN2)C1 + C=CC(=O)N1CCN(c2nc(OCC3CCCN3C)nc3c(F)c(-c4nc(N)cc(C)c4C(F)(F)F)c(Cl)cc23)C(C)C1
64.8%
